- System: HCT-116 colon
- METHOD SUMMARY: NCI-60 one-dose screen, 48 h
- CONDITION CONTEXT: 10 µM unless noted
- Protocol: Growth inhibition of the HCT-116 human tumor cell line is measured as a screen for anti-cancer activity. Cells are grown in 96 well plates and exposed to the test compound for 48 hours. Compounds are tested at a single concentration, which is 10^-5 M for most compounds. The reported endpoint is percent growth (GI% or GIPRCNT), where numbers from 0 - 100% represent growth inhibition, and numbers from -100% - 0 represent cell death. For example, a value of 40 represents 60% growth inhibition. […]
About 83,000 compounds went through this panel and 20% of them were active in at least one assay; those are over-represented in the sample as a whole. The source made the active and inactive calls. Rule for the calls: active = growth percent below 10; inactive = the rest.
Field 'call' accepts True for active, False for inactive

In: Per the records of this test, what outcome belongs to Cc1oc(-c2ccccc2Cl)cc1C(=O)Nc1ccc(S(N)(=O)=O)cc1 ?
Out: False

In: // param item: O=c1[nH]c2c3ccncc3cc(-c3cccc(Cl)c3)c2c2cnccc12 ; yields the recorded call
Out: True

In: Give the logged outcome of this assay for the following molecule: CC(=O)c1c(C)[nH]c(-c2nc3ccc(N4CCN(C)CC4)cc3[nH]2)c1-c1ccc(OCC2CCOCC2)cc1
Out: False

In: Given Nc1c(C(=O)Nc2cccc(Br)c2)sc2nc3c(cc12)C(=O)CCC3 , state the outcome it received in this test.
Out: False

Further cases:
In: Test call for this molecule, please: NC1=C(C/C(N)=N\O)C(c2ccccc2Cl)c2c(ccc3ccccc23)O1 (stereo not given)
Out: False

###

- System: HOP-92 NSCLC
- METHOD SUMMARY: NCI-60 one-dose screen, 48 h (100 = growth as untreated, 0 = no growth, -100 = all killed)
- CONDITION CONTEXT: 10 µM unless noted
This is part of a sample that, as a whole, favours compounds with a hit. Of some 83,000 tested, about 20% had one in any assay.
Below: a set of entries, each annotated with reported growth.
Hi! Could you send only the number? It should be in %, unit omitted.

In: Entry NC(Cc1ccc(O)cc1)C(=O)N/N=C/c1ccccc1O (stereo not given) : reported growth = ?
Out: 56.6

Attention now shifts to the item below.
In: Any idea what its growth is? The compound is Oc1cccc2oc(=S)[nH]c12
Out: 102

###

- Tested on: HCC-2998 colon
- METHOD SUMMARY: NCI-60 one-dose screen, 48 h (100 = growth as untreated, 0 = no growth, -100 = all killed)
- CONDITION CONTEXT: 10 µM unless noted
The panel holds about 83,000 compounds, 20% with a hit somewhere; the sample as a whole holds those more often.
Categories are defined by ranges of growth, namely low band: < 40%; middle band: ≥ 40% and < 90%; high band: ≥ 90%

Recorded results for 5 molecules are shown here.
In: For the record Nc1c(C(=O)Nc2cccc3ccccc23)sc2nc3c(cc12)CCCC3 , report the class its growth corresponds to.
Out: low band

In: Lab note: which band did COc1ccc(-c2c(-c3nc4ccc(N5CCOCC5)cc4[nH]3)[nH]c(C)c2C(C)=O)cc1 land in?
Out: low band

In: The entry to classify is O=C(NC(Cc1cn(Cc2ccccc2)cn1)C(=O)O)OCC1c2ccccc2-c2ccccc21 (configuration not stated) ; which class holds it?
Out: high band

In: Category lookup for the molecule COC(=O)[C@]12CC[C@@H](C(=O)/C=C/c3cccnc3)[C@@H]1[C@H]1CC[C@@H]3[C@@]4(C)C/C(=C/c5cccnc5)C(=O)C(C)(C)[C@@H]4CC[C@@]3(C)[C@]1(C)CC2
Out: low band

In: Hello team, could you let me know which band the following molecule falls into: Cn1cnc2c1c(=O)n(CCC(=O)Nc1ccc(F)cc1)c(=O)n2C
Out: high band

New cases:
In: Hey, which category is O=S(=O)(NCCNc1cc(-c2cn(-c3ccccc3)nc2-c2cccc(O)c2)ccn1)c1ccc(Cl)cc1 in, do you know?
Out: low band

In: Determine which band this molecule sits in: COC(=O)[C@]12CC[C@@H](C(/C=C/c3cccnc3)=N/O)[C@@H]1[C@H]1CC[C@@H]3[C@@]4(C)CC(=C/c5cccnc5)/C(=N/O)C(C)(C)[C@@H]4CC[C@@]3(C)[C@]1(C)CC2
Out: middle band

In: Just checking, what class would you give O=C(c1ccccc1)C(CN1CCOCC1)c1ccccc1 (configuration not stated) here?
Out: middle band

In: Lab note: which band did COC1=C(Br)C(=O)C(OC)=C(Br)C1=O land in?
Out: high band

In: Which of the defined bands does the recorded growth of Nc1nc2c(c(=O)[nH]1)C(c1ccc3c(c1)OCO3)C=C(C(=O)O)N2 (configuration not stated) sit within?
Out: high band

In: # classify by growth band: Cc1ccc(-c2ccc(/C=C(\C#N)c3nc(-c4ccco4)cs3)o2)cc1
Out: middle band

In: Which bin, given its growth, does Cc1ccc2c(c1)c(-c1nc(-c3c[nH]c4ncccc34)cs1)cn2C occupy?
Out: middle band

In: Lab note: sort CC1(C)C(=O)/C(=C\c2ccccn2)C[C@]2(C)[C@H]3CC[C@@H]4[C@@H](C(=O)/C=C/c5ccccn5)CC[C@@]4(C)[C@]3(C)CC[C@@H]12 into the matching growth band.
Out: low band

In: Exercise: read the entry NC1=NN=C2N(N)C(=O)c3cnn(-c4ccccc4)c3N2c2nc(-c3ccccc3)cc(-c3ccccc3)c21 and state which class it falls under.
Out: high band

In: Any idea which band CCCCC[C@H]1C/C=C2/C(=O)C(Cl)=C[C@@H]2C/C=C\CCCC(=O)O1 is in?
Out: low band

In: Categorize the following entry: CN(C)c1ccc(N=C2C=CC(=O)C=C2)cc1
Out: high band

###

Known growth of a selection of compounds
- Tested on: SNB-75 CNS
- METHOD SUMMARY: NCI-60 one-dose screen, 48 h (100 = growth as untreated, 0 = no growth, -100 = all killed)
- CONDITION CONTEXT: 10 µM unless noted
The panel holds about 83,000 compounds, 20% with a hit somewhere; the sample as a whole holds those more often.
Response body: numeric value in %, unit text excluded.

The cases that follow already have their growth on record.
In: I'd like to know its growth. The compound in question is C=C(C)[C@@H]1CC[C@]2(C(=O)OC)CC[C@]3(C)[C@H](CC[C@@H]4[C@@](C)(CC/C(N)=N/O)[C@H](C(=C)C)CC[C@]43C)[C@@H]12
Out: 95.4

In: Looking for the measured growth of CC(=O)NC1=C(C#N)C(c2ccccc2Cl)c2c(ccc3ccccc23)O1 (stereo not drawn) , can you help?
Out: 30.1

In: Entry under review: O=C1c2cc3c(cc2-c2c1c1ccc(F)cc1c(=O)n2CCCN1CCOCC1)OCO3 . Reported growth?
Out: 53.9

***
In: # growth lookup, item COc1ccccc1CNc1nc(N)nc2[nH]c3ccc(O)cc3c12
Out: 35.8

In: May I ask what growth has been recorded for Cc1cccc(C)c1NCc1nc(-c2ccccc2)n[nH]1 ?
Out: 89.7

###

- Tested on: EKVX NSCLC
- METHOD SUMMARY: NCI-60 one-dose screen, 48 h
- CONDITION CONTEXT: 10 µM unless noted
- Description: Growth inhibition of the EKVX human Non-Small Cell Lung tumor cell line is measured as a screen for anti-cancer activity. Cells are grown in 96 well plates and exposed to the test compound for 48 hours. Compounds are tested at a single concentration, which is 10^-5 M for most compounds. The reported endpoint is percent growth (GI% or GIPRCNT), where numbers from 0 - 100% represent growth inhibition, and numbers from -100% - 0 represent cell death. […]
About 83,000 compounds went through this panel and 20% of them were active in at least one assay; those are over-represented in the sample as a whole. The source made the active and inactive calls. How the source made its calls: active means growth percent below 10; inactive means the rest.
Write down the outcome that applies. Available outcomes: 1 = active, 0 = inactive

See these solved cases before continuing.
In: Recorded test call requested for Cc1cc(N2CCOCC2)nc(N(CCCNc2ccnc3cc(Cl)ccc23)Cc2ccco2)n1
Out: 0

In: Status in this test for CCSc1sc(-c2ccc(C)cc2)nc1[P+](c1ccccc1)(c1ccccc1)c1ccccc1 ?
Out: 1

In: I'd appreciate the recorded outcome for Cn1cc(-c2csc(-c3cn(C(=O)OC(C)(C)C)c4ccc(Br)cc34)n2)c2cccnc21 from this test.
Out: 0

Continuing:
In: Check the results log: what was the call for CCN1CCN(c2nc(C)cc(N(CCCNc3ccnc4cc(Cl)ccc34)Cc3ccco3)n2)CC1 ?
Out: 0

In: Recorded test call requested for Cc1ccc2c(c1)c(-c1nc(-c3c[nH]c4ncccc34)cs1)cn2C
Out: 0

###

- Tested on: UACC-62 melanoma
- METHOD SUMMARY: NCI-60 one-dose screen, 48 h
- CONDITION CONTEXT: 10 µM unless noted
About 83,000 compounds went through this panel and 20% of them were active in at least one assay; those are over-represented in the sample as a whole. The source made the active and inactive calls. Rule for the calls: active = growth percent below 10; inactive = the rest.
A correct response names exactly one class from label 1 for active, label 0 for inactive

Examples with answers:
In: Field: outcome | Entry: N#C/C(=C\c1ccc(-c2ccc(Cl)cc2)o1)c1nc(-c2ccco2)cs1
Out: label 0

In: Hey, what did the test say about CN1CCN(CCOc2ccc(-c3cnc4c(-c5cccc(F)c5)cnn4c3)cc2)CC1 ?
Out: label 0

In: Per the assay record, what outcome was assigned to N#CC1=C(N)Oc2ccc3ccccc3c2C1c1ccccc1Cl (centres undefined) ?
Out: label 0

In: Write down the call the test reported for this compound. Item: C=C(C)[C@@H]1CC[C@]2(C(=O)N3CCN(CC)CC3)CC[C@]3(C)[C@H](CC[C@@H]4[C@@](C)(CCC(=O)N5CCN(CC)CC5)[C@H](C(=C)C)CC[C@]43C)[C@@H]12
Out: label 0

In: Short answer needed: outcome of this test for Cc1csc(Nc2nc(-c3cccc(Br)c3)nc(C(Cl)(Cl)Cl)n2)n1 ?
Out: label 0

Next:
In: Fill in: this test's call for CN(C)c1ccc(-c2ccc(-c3ccc(C(=N)N)c(F)c3)s2)cc1 is ___
Out: label 1

In: For CCN1CCN(C(=O)[C@@]2(C)CC[C@]3(C)CC[C@]4(C)C(=CC(=O)[C@@H]5[C@@]6(C)CC[C@H](OCCC#N)C(C)(C)[C@@H]6CC[C@]54C)[C@@H]3C2)CC1 , which call appears in the assay record?
Out: label 0

In: Please share the test call associated with COc1ccc(/C=C(\C#N)c2cc3ccccc3n2S(C)(=O)=O)cc1 .
Out: label 0

In: Test call for this compound, please: NC1=C(C/C(N)=N\O)C(c2ccccc2Cl)c2c(ccc3ccccc23)O1 (centres undefined)
Out: label 0

# credit: PubChem BioAssay (NCI)
